Tested on: pBMC from patients with CLL
assay comment: Cytotoxicity of several antineoplastic agents on pBMC (LC90), fixed volume flow cytometry
Type: cell-based, human
details: pBMC of CLL patient #4, ex vivo; in µg/mL
Would you mind telling me the reported LC90 of each entry?
One number for each entry.

Please review the following examples before continuing.
| compound | LC90 |
| --- | --- |
| O=C1c2c(O)ccc(O)c2C(=O)c2c(NCCNCCO)ccc(NCCNCCO)c21 | 0.15 |
| CC[C@]1(O)C[C@H]2CN(CCc3c([nH]c4ccccc34)[C@@](C(=O)OC)(c3cc4c(cc3OC)N(C=O)[C@H]3[C@@](O)(C(=O)OC)[C@H](OC(C)=O)[C@]5(CC)C=CCN6CC[C@]43[C@@H]65)C2)C1 | 10.96 |
| Nc1nc(F)nc2c1ncn2[C@@H]1O[C@H](COP(=O)(O)O)[C@@H](O)[C@@H]1O [Fludarabine phosphate] | 26.00 |

Quick request: LC90 for each listed item, please.
1. C[C@]12C=CC(=O)C=C1CC[C@@H]1[C@@H]2[C@@H](O)C[C@@]2(C)[C@H]1CC[C@]2(O)C(=O)CO
2. Nc1nc(Cl)nc2c1ncn2[C@H]1C[C@H](O)[C@@H](CO)O1

Outgoing:
2.25
0.107
